Attribute: Number of times sequence was found, Round 3
- STUDY SYSTEM: Tag-xPSM (Homo sapiens, UniProt Q04609)
- Construct: made in house; host or cells: Sf-9 insect cells infected with recombinant baculovirus; protein harvested from the media
- Sequence (Q04609 44-750 limits assumed): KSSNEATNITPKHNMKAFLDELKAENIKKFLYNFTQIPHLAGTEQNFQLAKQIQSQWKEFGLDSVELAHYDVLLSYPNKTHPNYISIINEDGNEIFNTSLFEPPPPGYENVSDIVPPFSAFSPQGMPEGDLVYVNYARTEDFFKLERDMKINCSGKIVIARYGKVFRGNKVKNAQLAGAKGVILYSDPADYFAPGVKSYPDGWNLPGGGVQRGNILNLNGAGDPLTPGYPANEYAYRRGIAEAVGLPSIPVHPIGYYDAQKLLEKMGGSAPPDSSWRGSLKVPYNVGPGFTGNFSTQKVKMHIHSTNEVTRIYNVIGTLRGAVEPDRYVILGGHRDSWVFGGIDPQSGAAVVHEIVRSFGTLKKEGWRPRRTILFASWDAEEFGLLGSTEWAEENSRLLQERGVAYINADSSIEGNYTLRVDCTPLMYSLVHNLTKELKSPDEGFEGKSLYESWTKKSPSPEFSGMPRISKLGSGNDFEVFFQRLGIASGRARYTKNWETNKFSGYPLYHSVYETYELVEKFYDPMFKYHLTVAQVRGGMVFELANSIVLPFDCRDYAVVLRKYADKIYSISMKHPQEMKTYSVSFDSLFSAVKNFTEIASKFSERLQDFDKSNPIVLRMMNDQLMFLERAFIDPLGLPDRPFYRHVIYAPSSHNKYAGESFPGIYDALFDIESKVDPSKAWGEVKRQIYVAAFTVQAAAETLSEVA
- MEASUREMENT DESCRIPTION: Tag-xPSM phage display selection (agarose/cellulose), sequencing of selected phage
- Format: binding
- TEST CONTEXT: Cellulose

Guide cases for Number of times sequence was found, Round 3, answers given:
CKPSMMSYC [SEQ ID NO:8] | 0/0
CLKSHSHQC [SEQ ID NO:15] | 0/0
CKHSVSPSC [SEQ ID NO:18] | 0/0
CSHNDTRHC [SEQ ID NO:4] | 0/0
CPIMLSEPC [SEQ ID NO:26] | 0
CKPTNQHKC [SEQ ID NO:19] | 0/0
CTLVPHTRC [SEQ ID NO:3] | 0/0
CFPQSSDRC [SEQ ID NO:24] | 0

The reported Number of times sequence was found, Round 3 value, Tag-xPSM (Homo sapiens, UniProt Q04609), for CDAVRYPVC [SEQ ID NO:20] reads 0/0

Simply: CSSHSTVHC [SEQ ID NO:7] , Tag-xPSM (Homo sapiens, UniProt Q04609), Number of times sequence was found, Round 3 = 0/0

For the sequence CQFRHSAQC [SEQ ID NO:23] , the measured Number of times sequence was found, Round 3 on Tag-xPSM (Homo sapiens, UniProt Q04609) was 0

Tested on Tag-xPSM (Homo sapiens, UniProt Q04609): CHTSLKTHC [SEQ ID NO:14] . Observed Number of times sequence was found, Round 3: 0/0

Number of times sequence was found, Round 3 on Tag-xPSM (Homo sapiens, UniProt Q04609) for CNKSSLGTC [SEQ ID NO:13] is 0/0

For the sequence CLSSNSSLC [SEQ ID NO:28] , the measured Number of times sequence was found, Round 3 on Tag-xPSM (Homo sapiens, UniProt Q04609) was 1

Entry CTITSKRTC [SEQ ID NO:2] , Tag-xPSM (Homo sapiens, UniProt Q04609) data, Number of times sequence was found, Round 3 value: 1

Lab note: sequence CHTTTDVYC [SEQ ID NO:25] tested on Tag-xPSM (Homo sapiens, UniProt Q04609); recorded Number of times sequence was found, Round 3 was 0

* * *

- STUDY SYSTEM: Tag-xPSM (Homo sapiens)
- Construct: made in house; host or cells: Sf-9 insect cells infected with recombinant baculovirus; protein harvested from the media
- MEASUREMENT DESCRIPTION: Tag-xPSM phage display selection (agarose/cellulose), sequencing of selected phage
- Type: binding
- TEST CONTEXT: Agarose
Property: Number of times sequence was found, Round 4; scope: individual sequences

CPSVNTKQC [SEQ ID NO:9] | 0/0
CKPSMMSYC [SEQ ID NO:8] | 0/0
CHTTTDVYC [SEQ ID NO:25] | 0/0
CPIMLSEPC [SEQ ID NO:26] | 0/0
CTSNNSAIC [SEQ ID NO:27] | 0/0
CKPTNQHKC [SEQ ID NO:19] | 0
CNKSSLGTC [SEQ ID NO:13] | 0
CTLVPHTRC [SEQ ID NO:3] | 13/13
CHKFQSKMC [SEQ ID NO:17] | 0
CQFRHSAQC [SEQ ID NO:23] | 0/0

Reported Number of times sequence was found, Round 4 for CLSSNSSLC [SEQ ID NO:28] was 0/0

Per the records, this sequence ( CSHNDTRHC [SEQ ID NO:4] ) has Number of times sequence was found, Round 4 equal to 0/0

Reported Number of times sequence was found, Round 4 ( CFPQSSDRC [SEQ ID NO:24] ) = 0/0

Short answer for CKHSVSPSC [SEQ ID NO:18] : Number of times sequence was found, Round 4 was 0

Quick note, Number of times sequence was found, Round 4 for CHTKHASHC [SEQ ID NO:6] landed at 0/0

The recorded Number of times sequence was found, Round 4 for entry CSSHSTVHC [SEQ ID NO:7] equals 0/0
